- tgt: UniProt:Q9GZT9
- Sequence (Q9GZT9 whole entry): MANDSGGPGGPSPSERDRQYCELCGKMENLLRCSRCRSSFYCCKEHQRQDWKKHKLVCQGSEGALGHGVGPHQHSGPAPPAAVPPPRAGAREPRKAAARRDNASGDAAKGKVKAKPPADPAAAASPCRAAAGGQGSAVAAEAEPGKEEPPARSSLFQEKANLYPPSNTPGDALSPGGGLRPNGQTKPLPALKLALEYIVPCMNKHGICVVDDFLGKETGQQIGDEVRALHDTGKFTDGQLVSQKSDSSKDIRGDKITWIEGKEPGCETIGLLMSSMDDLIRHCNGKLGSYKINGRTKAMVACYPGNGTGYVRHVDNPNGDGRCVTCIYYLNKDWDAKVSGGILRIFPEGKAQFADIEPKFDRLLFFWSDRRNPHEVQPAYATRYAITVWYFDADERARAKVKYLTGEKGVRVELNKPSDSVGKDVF
- assay_text: HIF-PH assay (14CO2 capture), PHD2 enzyme inhibition
- Assay type: biochemical
- condition_set: Table 1; individual measurement; read-out: IC50 (μM) PHD2
Collected IC50 values appear next to each entry.
Lab book: enter the figure in µM, no units written.

Example compounds with recorded IC50:
[
  {
    "molecule": "N#Cc1nc(C(=O)NCC2(C(=O)O)CCC2)c(O)c2ccc(OC3CCCCC3)cc12",
    "reported_result": 7.9
  },
  {
    "molecule": "O=C(O)CCCNC(=O)c1ncc2cc(Oc3ccccc3)ccc2c1O",
    "reported_result": 7
  },
  {
    "molecule": "O=C(O)CCCCNC(=O)c1ncc2cc(Nc3ccccc3)ccc2c1O",
    "reported_result": 200
  }
]

Indicate the recorded IC50 value for this compound: O=C(Nc1ccccc1)Nc1ccc2c(O)c(C(=O)NC[C@H](O)C(=O)O)ncc2c1
51.4
